- System: reserpine-induced hypothermia / blood pressure
- test description: Quotient ED 50% antidepressive action / ED 20% hypertensive action;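 further: larger quotient means more selective hypertensive action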
- Assay type: in vivo, mouse / rat
- settings: Table 2; route of hypertensive test not given
Structures can show the parent of a compound that is named as a salt.
The label depends only on Q Increase: condition met if it is at least 60, condition not met if it is smaller.

Answered examples (4):
C=C(C)C(=O)N=c1ccn(-c2ccccc2)nc1 | condition not met
O=C(N=c1ccn(-c2ccccc2)nc1)Oc1ccccc1 [Example 30, hydrochloride] | condition met
COc1cc(=NC(=O)Oc2ccccc2)cnn1-c1ccccc1 | condition not met
COc1cc(N)cn[n+]1-c1ccccc1 [Amezinium, reference compound] | condition not met

Task item: Does the reported Q Increase for O=C(N=c1ccn(-c2ccccc2)nc1)C1CCC1 [Example 11, hydrochloride] fall at or above the 60 mark?
Reply: condition met

Task item: Dear colleague, could you confirm whether O=C(N=c1ccn(-c2ccccc2)nc1)c1ccccc1 has Q Increase at or above 60?
Reply: condition not met

----------
Below, each entry is listed with its recorded Q Increase.
- Test system: reserpine-induced hypothermia / blood pressure
- test description: Quotient ED 50% antidepressive action / ED 20% hypertensive action;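 further: larger quotient means more selective hypertensive action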
- Type: in vivo, mouse / rat
- settings: Table 2; route of hypertensive test not given
Counter-ions that a name gives are not always drawn.
Response field accepts a number only; no unit should be typed.

Nc1cc[n+](-c2ccccc2)nc1.[O-][Cl+3]([O-])([O-])[O-] [reference compound] | 22.22
O=C(Cc1ccccc1)N=c1ccn(-c2ccccc2)nc1 [Example 9, hydrochloride] | 63.17
O=C(N=c1ccn(-c2ccccc2)nc1)c1ccc(F)cc1 [Example 14, hydrochloride] | 23.81

Task item: # Q Increase lookup, item CCCCCCCC(=O)N=c1ccn(-c2ccccc2)nc1 [Example 8, hydrochloride]
Reply: 95.09

----------
- Test system: blood pressure
- test description: Effect on the blood pressure: hypertensive action, pithed rat
- Assay type: in vivo, male Sprague-Dawley rats
- settings: Table 1; i.v. administration; amezinium = 1.00
Structures can show the parent of a compound that is named as a salt.
property measured: R.A. (relative activity), hypertensive action
Could you respond with only the numeric value?

Task item: Quick check: R.A. (relative activity), hypertensive action on blood pressure, item CNC(=O)N=c1ccn(-c2ccccc2)nc1 [Example 31] ?
Reply: 0.03

Task item: Form field - read-out: R.A. (relative activity), hypertensive action; system: blood pressure; submitted item: O=C(N=c1ccn(-c2ccccc2)nc1)C1CC1 [Example 10, hydrochloride]
Reply: 0.11

Task item: What reported R.A. (relative activity), hypertensive action corresponds to COc1cc(=NC(=O)NCc2ccccc2)cnn1-c1ccccc1 [Example 74] on blood pressure?
Reply: 0.01

Task item: API: value(readout= R.A. (relative activity), hypertensive action, system= blood pressure, query= CC(C)C(=O)N=c1ccn(-c2ccccc2)nc1 [Example 5, hydrochloride] )
Reply: 0.23

----------
The following molecules are shown together with reported R.A. (relative activity), hypertensive action values.
- Test system: blood pressure
- test description: Effect on the blood pressure: hypertensive action, pithed rat
- Assay type: in vivo, male Sprague-Dawley rats
- settings: Table 1; i.v. administration; amezinium = 1.00
Structures can show the parent of a compound that is named as a salt.
Answer with a bare number; do not write a unit.

O=C(N=c1ccn(-c2ccccc2)nc1)OCc1ccccc1 | 0.50
C=CCOC(=O)N=c1cnn(-c2ccccc2)c(OC)c1 | 0.11
COc1cc(OC)cc(C(=O)N=c2cnn(-c3ccccc3)c(OC)c2)c1 | 0.09
CC(C)NC(=O)N=c1ccn(-c2ccccc2)nc1 | 0.05
CCC(=O)N=c1ccn(-c2ccccc2)nc1 [Example 3, hydrochloride] | 0.25

Task item: I have this molecule here, CCOC(=O)N=c1cnn(-c2ccccc2)c(OC)c1 , and I need its recorded R.A. (relative activity), hypertensive action.
Reply: 0.02

Task item: Please give the measured R.A. (relative activity), hypertensive action for this molecule: CCSC(=O)N=c1ccn(-c2ccccc2)nc1
Reply: 0.16

Task item: GET /values?readout=R.A. (relative activity), hypertensive action&item= CCNC(=O)N=c1ccn(-c2ccccc2)nc1
Reply: 0.11

Task item: Which R.A. (relative activity), hypertensive action is reported for this molecule? Nc1cc[n+](-c2ccccc2)nc1.[O-][Cl+3]([O-])([O-])[O-] [reference compound]
Reply: 2.78

Task item: Quick one: R.A. (relative activity), hypertensive action for COc1cc(N)cn[n+]1-c1ccccc1 [Amezinium, reference compound] ?
Reply: 1.00

Task item: Report R.A. (relative activity), hypertensive action for CC(=O)N=c1ccn(-c2ccccc2)nc1 [Example 1, hydrochloride] please.
Reply: 0.16

Task item: Report R.A. (relative activity), hypertensive action for CCCNC(=O)N=c1ccn(-c2ccccc2)nc1 please.
Reply: 0.05

Task item: // returns reported R.A. (relative activity), hypertensive action for input CCCCOC(=O)N=c1cnn(-c2ccccc2)c(OC)c1
Reply: 0.11
